biological target: Muscarinic acetylcholine receptor M3 (Homo sapiens, UniProt P20309); experiment: Binding affinity against human muscarinic acetylcholine receptor M3 in transfected CHO cells
Sequence (P20309 whole entry): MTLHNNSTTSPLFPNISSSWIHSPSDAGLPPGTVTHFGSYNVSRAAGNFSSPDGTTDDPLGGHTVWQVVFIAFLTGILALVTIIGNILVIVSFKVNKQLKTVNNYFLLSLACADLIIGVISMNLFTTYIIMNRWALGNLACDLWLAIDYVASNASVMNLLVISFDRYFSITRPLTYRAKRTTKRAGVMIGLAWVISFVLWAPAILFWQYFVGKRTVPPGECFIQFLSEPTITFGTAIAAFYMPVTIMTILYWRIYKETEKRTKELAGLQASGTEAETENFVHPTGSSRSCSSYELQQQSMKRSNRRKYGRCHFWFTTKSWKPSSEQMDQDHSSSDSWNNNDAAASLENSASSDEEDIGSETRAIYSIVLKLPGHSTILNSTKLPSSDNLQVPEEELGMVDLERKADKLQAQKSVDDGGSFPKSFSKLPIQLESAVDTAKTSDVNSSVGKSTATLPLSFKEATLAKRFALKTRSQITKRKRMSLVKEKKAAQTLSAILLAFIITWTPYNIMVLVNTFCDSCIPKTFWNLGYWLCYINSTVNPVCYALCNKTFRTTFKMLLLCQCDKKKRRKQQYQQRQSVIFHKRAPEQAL
pKi: −log10 of the molar value.
Rule: pKi of 8 or more gives T; anything lower gives F.

[[record]]
compound = "CC(C)(N)CC1CCN(C(=O)[C@](O)(c2ccccc2)[C@@H]2CCC(F)(F)C2)CC1"
class = "F"

[[record]]
compound = "NCCC1CCN(C(=O)[C@](O)(c2ccccc2)C2CCCC2)CC1"
class = "T"

[[record]]
compound = "NCCCCC1CCN(C(=O)[C@](O)(c2ccccc2)[C@@H]2CCC(F)(F)C2)CC1"
class = "F"

[[record]]
compound = "CNCCC1CCN(C(=O)[C@](O)(c2ccccc2)[C@@H]2CCC(F)(F)C2)CC1"
class = "F"

[[record]]
compound = "O=C(N1CCNCC1)[C@](O)(c1ccccc1)[C@@H]1CCC(F)(F)C1"
class = "F"

[[record]]
compound = "NC1CCN(C(=O)[C@](O)(c2ccccc2)[C@@H]2CCC(F)(F)C2)CC1"
class = "T"

[[record]]
compound = "O=C(NC1CCNCC1)[C@](O)(c1ccccc1)[C@@H]1CCC(F)(F)C1"
class = "F"

[[record]]
compound = "CC1(CCN)CCN(C(=O)[C@](O)(c2ccccc2)[C@@H]2CCC(F)(F)C2)CC1"
class = "T"

[[record]]
compound = "NCC1CCN(C(=O)[C@](O)(c2ccccc2)C2CCCC2)CC1"
class = "T"

[[record]]
compound = "NCC1CCN(C(=O)[C@](O)(c2ccccc2)[C@@H]2CCC(F)(F)C2)C1 (some centres not stated)"
class = "T"

[[record]]
compound = "CN(C)CCC1CCN(C(=O)[C@](O)(c2ccccc2)[C@@H]2CCC(F)(F)C2)CC1"
class = "F"

[[record]]
compound = "NC1CCN(C(=O)[C@](O)(c2ccccc2)C2CCCC2)CC1"
class = "T"

[[record]]
compound = "O=C(N1CCC(CCN2CCCCC2)CC1)[C@](O)(c1ccccc1)[C@@H]1CCC(F)(F)C1"
class = "F"

[[record]]
compound = "NCc1ccc(NC(=O)[C@](O)(c2ccccc2)[C@@H]2CCC(F)(F)C2)cc1"
class = "F"

[[record]]
compound = "NCCCC1CCN(C(=O)[C@](O)(c2ccccc2)[C@@H]2CCC(F)(F)C2)CC1"
class = "F"

[[record]]
compound = "NCC1CCC(NC(=O)[C@](O)(c2ccccc2)[C@@H]2CCC(F)(F)C2)CC1 (some centres not stated)"
class = "F"

[[record]]
compound = "NCC=C1CCN(C(=O)[C@](O)(c2ccccc2)[C@@H]2CCC(F)(F)C2)CC1"
class = "T"

[[record]]
compound = "O=C(Nc1ccc2c(c1)CNC2)[C@](O)(c1ccccc1)[C@@H]1CCC(F)(F)C1"
class = "F"

[[record]]
compound = "O=C(NCCC1CCNCC1)[C@](O)(c1ccccc1)[C@@H]1CCC(F)(F)C1"
class = "F"

[[record]]
compound = "NCc1cccc(NC(=O)[C@](O)(c2ccccc2)[C@@H]2CCC(F)(F)C2)c1"
class = "F"

